pIC50 listing for selected compounds.
test system: MYC; experiment: In vitro transcription-translation (IVTT) assay, MYC reporter; assay type: biochemical; settings: IVTT assay, HeLa S3 lysate, MYC reporter, normalized sfGFP/mCherry ratio; half-log dilutions 30 μM-0.1 μM, 2 hrs at 30° C.
pIC50: −log10 of the molar value.
measured.property: pIC50

smiles.entry: O=C(NCCOC(F)F)O[C@@H]1[C@@H](O)CN[C@@H]1Cc1ccc(-c2cnco2)cc1
tested.system: MYC
result.value: > 5.00
--
smiles.entry: O=C(NCC[C@@H]1CCCN1)O[C@@H]1[C@@H](O)CN[C@@H]1Cc1ccc(-c2ccccc2)cc1
tested.system: MYC
result.value: > 5.00
--
smiles.entry: O=C(NCc1cnsc1)O[C@@H]1[C@@H](O)CN[C@@H]1Cc1ccc(C(F)F)cc1
tested.system: MYC
result.value: > 5.00
--
smiles.entry: O=C(NCc1ccccc1)O[C@@H]1[C@@H](O)CN[C@@H]1Cc1ccc(-c2ccc3c(c2)CNC3)cc1
tested.system: MYC
result.value: > 5.00

----------
The entries below are paired with their reported pIC50.
test system: KRAS G12D; assay: In vitro transcription-translation (IVTT) assay, KRAS G12D reporter; type: biochemical; details: HeLa S3 lysate, sfGFP/mCherry ratio, 2 hrs at 30° C.
pIC50: −log10 of the molar value.

smiles.entry: CCCCN(CCCC)CCCNC(=O)O[C@@H]1[C@@H](O)CN[C@@H]1Cc1ccc(OC)cc1
pIC50: < 4.52
--
smiles.entry: COc1ccc(C[C@H]2NC[C@H](O)[C@H]2OC(=O)NC2CNC2)cc1
pIC50: < 4.52
--
smiles.entry: COc1ccc(C[C@H]2NC[C@H](O)[C@H]2OC(=O)NCc2c[nH]nn2)cc1
pIC50: > 5.00
--
smiles.entry: COc1ccc(C[C@H]2NC[C@H](O)[C@H]2OC(=O)NCCN(C(C)C)C(C)C)cc1
pIC50: < 4.52
--
smiles.entry: COc1ccc(C[C@H]2NC[C@H](O)[C@H]2OC(=O)NCCO)cc1
pIC50: 4.70 to 5.00
--
smiles.entry: COc1ccc(C[C@H]2NC[C@H](O)[C@H]2OC(=O)NCCCCO)cc1
pIC50: > 5.00
--
smiles.entry: COc1ccc(C[C@H]2NC[C@H](O)[C@H]2OC(=O)NCCc2ncc[nH]2)cc1
pIC50: < 4.52
--
smiles.entry: COc1ccc(C[C@H]2NC[C@H](O)[C@H]2OC(=O)NCCN2CC(O)(C#N)C2)cc1
pIC50: 4.52 to 4.70

----------
system: CCNTB1; assay: In vitro transcription-translation (IVTT) assay, CCNTB1 reporter; format: biochemical; conditions: HeLa S3 lysate, 2 hrs at 30° C.

compound: COc1ccc(C[C@H]2NC[C@H](O)[C@H]2OC(=O)NCc2cc(N3CCC3)nc(N3CCC3)c2)cc1 [V188227]
IC50: < 10 µM
//
compound: COc1ccc(C[C@H]2NC[C@H](O)[C@H]2OC(=O)NC[C@H]2CCN(c3nccs3)C2)cc1 [V188170]
IC50: < 10 µM
//
compound: COc1ccc(C[C@H]2NC[C@H](O)[C@H]2OC(=O)NCc2ccc(C3CNC3)cc2)cc1 [V190559]
IC50: < 10 µM
//
compound: COc1ccc(C[C@H]2NC[C@H](O)[C@H]2OC(=O)NCCC2CCNCC2)cc1 [V188229]
IC50: < 10 µM
//
compound: COc1ccc(C[C@H]2NC[C@H](O)[C@H]2OC(=O)NC2CC3(CCNC3)C2)cc1 (stereo partly drawn) [V190538]
IC50: > 30 µM
//
compound: COc1ccc(C[C@H]2NC[C@H](O)[C@H]2OC(=O)NC[C@H]2CCN(C)C2)cc1 [V188108]
IC50: 20 to 30 µM
//
compound: O=C(NCc1cccc(F)c1)O[C@@H]1[C@@H](O)CN[C@@H]1Cc1ccc(-c2cscn2)cc1 [V190511]
IC50: < 10 µM
//
compound: COc1ccc(C[C@H]2NC[C@H](O)[C@H]2OC(=O)NCc2ccc(N)nc2)cc1 [V188316]
IC50: < 10 µM
//
compound: COc1ccc(C[C@H]2NC[C@H](O)[C@H]2OC(=O)NCc2ccccc2F)cc1 [V190520]
IC50: < 10 µM
//
compound: O=C(NCc1ccc(Cl)cc1)O[C@@H]1[C@@H](O)CN[C@@H]1Cc1ccc(Cl)cc1 [V188273]
IC50: 10 to 20 µM
//
compound: COc1ccc(C[C@H]2NC[C@H](O)[C@H]2OC(=O)NCCO[C@@H]2CCNC2)cc1 [V188071]
IC50: < 10 µM
//
compound: O=C(NC[C@H]1CCNC1)O[C@@H]1[C@@H](O)CN[C@@H]1Cc1ccc(Cl)cc1 [V188188]
IC50: < 10 µM
//
compound: NS(=O)(=O)c1ccc(CNC(=O)O[C@@H]2[C@@H](O)CN[C@@H]2Cc2ccc(Cl)cc2)cc1 [V188291]
IC50: < 10 µM
//
compound: COc1ccc(C[C@H]2NC[C@H](O)[C@H]2OC(=O)NCc2ccc(N)nn2)cc1 [V188311]
IC50: < 10 µM
//
compound: COc1ccc(C[C@H]2NC[C@H](O)[C@H]2OC(=O)NCc2cc(N3CCCC3)nc(N3CCCC3)c2)cc1 [V188228]
IC50: > 30 µM
//
compound: O=C(NCc1cccc(F)c1)O[C@@H]1[C@@H](O)CN[C@@H]1Cc1ccc(-c2cncs2)cc1 [V190546]
IC50: < 10 µM
//
compound: COc1ccc(C[C@H]2NC[C@H](O)[C@H]2OC(=O)NCc2ccc(C(N)=O)cc2)cc1 [V188296]
IC50: < 10 µM
//
compound: COc1ccc(C[C@H]2NC[C@H](O)[C@H]2OC(=O)NC[C@@H]2[C@@H]3CNC[C@@H]32)cc1 [V188161]
IC50: < 10 µM
//
compound: COc1ccc(C[C@H]2NC[C@H](O)[C@H]2OC(=O)NCCc2c(C)noc2C)cc1 [V190414]
IC50: 20 to 30 µM
//
compound: COc1ccc(C[C@H]2NC[C@H](O)[C@H]2OC(=O)NCC(=O)N[C@@H](C)C(=O)O)cc1 [V188019]
IC50: > 30 µM
//
compound: COc1ccc(C[C@H]2NC[C@H](O)[C@H]2OC(=O)NCc2ccc(S(N)(=O)=O)cc2)cc1 [V188304]
IC50: < 10 µM
//
compound: COc1ccc(C[C@H]2NC[C@H](O)[C@H]2OC(=O)NCc2ccnc(F)c2)cc1 [V190522]
IC50: < 10 µM
//
compound: O=C(NCc1cccc(F)c1)O[C@@H]1[C@@H](O)CN[C@@H]1Cc1ccc(-c2cnco2)cc1 [V190545]
IC50: < 10 µM
//
compound: COc1ccc(C[C@H]2NC[C@H](O)[C@H]2OC(=O)NCc2ccnc(C(F)(F)F)c2)cc1 [V188050]
IC50: < 10 µM
//
compound: O=C(NCc1cnoc1)O[C@@H]1[C@@H](O)CN[C@@H]1Cc1ccc(Cl)cc1 [V188289]
IC50: < 10 µM
//
compound: COc1ccc(C[C@H]2NC[C@H](O)[C@H]2OC(=O)NCCc2ccc(S(=O)(=O)F)cc2)cc1 [V188175]
IC50: < 10 µM
//
compound: COc1ccc(C[C@H]2NC[C@H](O)[C@H]2OC(=O)NCc2ccc(Cn3cccn3)cc2)cc1 [V188314]
IC50: < 10 µM

----------
Overview of recorded pIC50 for various compounds
system: MYC; assay: In vitro transcription-translation (IVTT) assay, MYC reporter; assay type: biochemical; conditions: IVTT assay, HeLa S3 lysate, MYC reporter, normalized sfGFP/mCherry ratio; half-log dilutions 30 μM-0.1 μM, 2 hrs at 30° C.
pIC50: −log10 of the molar value.

smiles.entry: O=C(NCc1cccc(F)c1)O[C@@H]1[C@@H](O)CN[C@@H]1Cc1ccc(C(F)(F)F)cc1
pIC50: > 5.00
--
smiles.entry: COc1ccc(C[C@H]2NC[C@H](O)[C@H]2OC(=O)NCc2ccc(-c3ncc[nH]3)cc2)cc1
pIC50: > 5.00
--
smiles.entry: O=C(NCc1cccc(F)c1)O[C@@H]1[C@@H](O)CN[C@@H]1Cc1ccc(-c2cnoc2)cc1
pIC50: > 5.00

----------
tested on: MYC; assay: In vitro transcription-translation (IVTT) assay, MYC reporter; format: biochemical; conditions: IVTT assay, HeLa S3 lysate, MYC reporter, normalized sfGFP/mCherry ratio; half-log dilutions 30 μM-0.1 μM, 2 hrs at 30° C.
pIC50: −log10 of the molar value.

smiles.entry: O=C(NCC[C@@H]1CCCN1)O[C@@H]1[C@@H](O)CN[C@@H]1Cc1ccc(-c2ccc3c(c2)CC(F)(F)C3)cc1
tested.system: MYC
pIC50: 4.70 to 5.00

smiles.entry: COc1ccc(C[C@H]2NC[C@H](O)[C@H]2OC(=O)NCc2ccc3cnccc3c2)cc1
tested.system: MYC
pIC50: > 5.00

smiles.entry: O=C(NCc1cnoc1)O[C@@H]1[C@@H](O)CN[C@@H]1Cc1ccc(Cl)cc1
tested.system: MYC
pIC50: > 5.00

smiles.entry: COc1ccc(C[C@H]2NC[C@H](O)[C@H]2OC(=O)NCC#Cc2ccccc2)cc1
tested.system: MYC
pIC50: 4.70 to 5.00

smiles.entry: O=C(NCc1ccc(Cl)cc1)O[C@@H]1[C@@H](O)CN[C@@H]1Cc1ccc(Cl)cc1
tested.system: MYC
pIC50: < 4.52

smiles.entry: COc1ccc(C[C@H]2NC[C@H](O)[C@H]2OC(=O)NCc2ccc(C(N)=O)cc2)cc1
tested.system: MYC
pIC50: > 5.00

smiles.entry: O=C(NCc1cccc(F)c1)O[C@@H]1[C@@H](O)CN[C@@H]1Cc1ccc(-c2ccc3nonc3c2)cc1
tested.system: MYC
pIC50: > 5.00

smiles.entry: COc1ccc(C[C@H]2NC[C@H](O)[C@H]2OC(=O)NCC(F)(F)CO)cc1
tested.system: MYC
pIC50: < 4.52

smiles.entry: O=C(NC[C@H]1CCOC1)O[C@@H]1[C@@H](O)CN[C@@H]1Cc1ccc(Cl)cc1
tested.system: MYC
pIC50: > 5.00

smiles.entry: O=C(NCC[C@@H]1CCCN1)O[C@@H]1[C@@H](O)CN[C@@H]1Cc1ccc(-c2ccns2)cc1
tested.system: MYC
pIC50: > 5.00

smiles.entry: COc1ccc(C[C@H]2NC[C@H](O)[C@H]2OC(=O)NCCC2(N)CC2)cc1
tested.system: MYC
pIC50: > 5.00

smiles.entry: COc1ccc(C[C@H]2NC[C@H](O)[C@H]2OC(=O)NCC2CCC2)cc1
tested.system: MYC
pIC50: > 5.00

smiles.entry: COc1ccc(C[C@H]2NC[C@H](O)[C@H]2OC(=O)NCCn2ccnc2[N+](=O)[O-])cc1
tested.system: MYC
pIC50: 4.70 to 5.00

smiles.entry: COc1ccc(C[C@H]2NC[C@H](O)[C@H]2OC(=O)NCc2ccc(NS(C)(=O)=O)cc2)cc1
tested.system: MYC
pIC50: > 5.00

Just for reference, patent US20250129021A1 is where these values come from.
